This listing pairs molecules with measured fold induction at 5 µM.
System: HMOX1
Assay: HMOX1 Protein Assay (immunostaining of HO-1 in NHLF cells, GE InCell 1000)
Format: cell-based
Conditions: Homo sapiens, fold change above DMSO treated cells, 5 μM compound, 16 h
Counter-ions that a name gives are not always drawn.
Lab note: jot down the number only; don't add units.

CN(C)C1CCN(C(=O)CNC(=O)c2ccc3c(c2)nc(Nc2nc4ccc(Cl)cc4s2)n3C)CC1    67.3
Cn1c(Nc2nc3ccc(OC(F)(F)F)cc3s2)nc2cc(C(=O)NCCCCCO)ccc21    23.3
CNC(=O)c1ccc2c(c1)nc(Nc1nc3ccc(C)cc3s1)n2C    32.7

Data request: What value of fold induction at 5 µM has been recorded for this entry: CNCCOCCNC(=O)c1ccc2c(c1)nc(Nc1nc3ccc(Cl)cc3s1)n2C [Example 272, hydrochloride]
Data returned: 86.5

Data request: What fold induction at 5 µM value was documented for this molecule, CNC1CCN(C(=O)CNC(=O)c2ccc3c(c2)nc(Nc2nc4ccc(Cl)cc4s2)n3C)CC1 [Example 454, hydrochloride] ?
Data returned: 62.2

Data request: GET /values?readout=fold induction at 5 µM&item= `COCCn1c(Nc2nc3ccc(OC(F)(F)F)cc3s2)nc2cc(C(=O)NCC(=O)N(C)C)ccc21`
Data returned: 18.3

Data request: I'd like to know its fold induction at 5 µM. The molecule in question is `C[C@@H](O)CNC(=O)c1ccc2c(c1)nc(Nc1nc3ccc(OC(F)(F)F)cc3s1)n2C`
Data returned: 9.9

Data request: Fill blank: measured fold induction at 5 µM of the molecule Cn1c(Nc2nc3ccc(Cl)cc3s2)nc2cc(C(=O)N[C@@H]3CCCNC3)ccc21 [Example 309, hydrochloride] is ____.
Data returned: 21.5
